System: abdominal stretching induced by phenylbenzoquinone
Assay: Analgesic activity, Siegmund (phenylbenzoquinone abdominal stretching)
Assay type: in vivo, Swiss male mice
Settings: 50 mg/kg os; salts' dosage expressed as acid; vs water controls
Label label 1 for high-side % Decrease in number of stretchings (at or above 60%) and label 0 for low-side % Decrease in number of stretchings (below it).

O=C(O)Cc1ccc(OCC2CC2)c(Cl)c1 [DL-lysine 4-cyclopropylmethyleneoxy-3-chlorophenylacetate] : label 1
O=C(O)Cc1ccc(OCC2CC2)c(Cl)c1 [4-cyclopropylmethyleneoxy-3-chlorophenylacetic acid] : label 1
CCCCC1C(=O)N(c2ccccc2)N(c2ccccc2)C1=O [phenylbutazone, 4-butyl-1,2-diphenyl-3,5-dioxopyrazoline, reference compound] : label 1
C=CCOc1ccc(CC(=O)O)cc1Cl [4-allyloxy-3-chlorophenylacetic acid, reference compound] : label 0

Req: Could you verify whether the entry O=C([O-])Cc1ccc(OCC2CC2)c(Cl)c1.O=C([O-])Cc1ccc(OCC2CC2)c(Cl)c1.[Cu+2] shows % Decrease in number of stretchings of no less than 60%?
Resp: label 1
